Listed below: RLuc8.6-535 luminescence intensity (%) values for each entry.
Subject of test: RLuc8.6-535 (Renilla reniformis, UniProt P27652, A123S/A143M/A55T/C124A/D154M/D162E/E155G/I163L/K136R/M185L/M253L/S130A/S287L)
Sequence (P27652 whole entry A55T/A123S/C124A/S130A/K136R/A143M/D154M/E155G/D162E/I163L/M185L/M253L/S287L): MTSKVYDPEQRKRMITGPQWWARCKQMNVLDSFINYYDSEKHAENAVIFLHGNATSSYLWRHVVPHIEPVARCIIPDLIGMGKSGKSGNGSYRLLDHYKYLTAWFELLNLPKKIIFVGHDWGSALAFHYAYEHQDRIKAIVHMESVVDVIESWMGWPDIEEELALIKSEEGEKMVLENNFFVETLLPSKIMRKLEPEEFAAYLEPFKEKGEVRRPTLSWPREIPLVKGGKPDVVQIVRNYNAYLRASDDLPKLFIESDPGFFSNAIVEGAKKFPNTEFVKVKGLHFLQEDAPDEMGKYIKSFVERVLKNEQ
Format: biochemical
Set-up: expressed in transfected cells; host or cells: COST cells (so in the source)
Reported conditions: 2 μM substrate in PBS pH 7.4, cell lysate, maximum intensity over 1 second, relative value
Reply numerically in %, unit not repeated.

Example cases with answers are listed next.
Compound	Unit text	Numeric value
Cc1ccc(-c2cn3c(=O)c(Cc4ccccc4)nc-3c(Cc3ccccc3)[nH]2)cc1	%	25.3
CCc1ccc(-c2cn3c(=O)c(Cc4ccccc4)nc-3c(Cc3ccccc3)[nH]2)cc1	%	18.0
COCCCOc1ccc(-c2cn3c(=O)c(Cc4ccccc4)nc-3c(Cc3ccccc3)[nH]2)cc1	%	29.3

query: I would be grateful if you could share the reported RLuc8.6-535 luminescence intensity (%) for CCc1ccc(-c2cn3c(=O)c(Cc4ccc(O)cc4)nc-3c(Cc3ccccc3)[nH]2)cc1 .
result: 29.4

query: Return reported RLuc8.6-535 luminescence intensity (%); argument: CCCCOc1ccc(-c2cn3c(=O)c(Cc4ccc(O)cc4)nc-3c(Cc3ccccc3)[nH]2)cc1
result: 39.6

query: Look up RLuc8.6-535 luminescence intensity (%): O=c1c(Cc2ccccc2)nc2c(Cc3ccccc3)[nH]c(-c3ccc(OCCCO)cc3)cn1-2
result: 23.9

query: May I ask what RLuc8.6-535 luminescence intensity (%) has been recorded for COCc1ccc(-c2cn3c(=O)c(Cc4ccc(O)cc4)nc-3c(Cc3ccccc3)[nH]2)cc1 [Example 6-Ether-CTZ, reference compound] ?
result: 8.94

----------
Subject of test: RLuc8.6-535 (Renilla reniformis, UniProt P27652, A123S/A143M/A55T/C124A/D154M/D162E/E155G/I163L/K136R/M185L/M253L/S130A/S287L)
Type: biochemical
Set-up: expressed in transfected cells; host or cells: COST cells (so in the source)
Reported conditions: bioluminescence spectrum, ATTO LumiFL
Recorded RLuc8.6-535 maximum luminescence wavelength (nm) by entry
The response must be a number in nm with no trailing unit.

In the examples that follow, each entry is paired with its recorded RLuc8.6-535 maximum luminescence wavelength (nm).
Compound	Unit text	Numeric value
CCc1ccc(-c2cn3c(=O)c(Cc4ccccc4)nc-3c(Cc3ccccc3)[nH]2)cc1 [6-Ethyl-2H-CTZ]	nm	411
Oc1ccc(Cc2nc3c(Cc4ccccc4)nc(-c4ccc(O)cc4)cn3c2O)cc1 [Native-CTZ, coelenterazine]	nm	538
CCCCOc1ccc(-c2cn3c(=O)c(Cc4ccc(O)cc4)nc-3c(Cc3ccccc3)[nH]2)cc1 [Example 6-Alkyl3-CTZ]	nm	412
CCCCOc1ccc(-c2cn3c(=O)c(Cc4ccccc4)nc-3c(Cc3ccccc3)[nH]2)cc1 [6-Alkyl3-2H-CTZ]	nm	413
O=c1c(Cc2ccc(O)cc2)nc2c(Cc3ccccc3)[nH]c(-c3ccc(OCCCCO)cc3)cn1-2 [6-Alkyl4OH-CTZ]	nm	412
O=c1c(Cc2ccccc2)nc2c(Cc3ccccc3)[nH]c(-c3ccc(OCCO)cc3)cn1-2 [6-Alkyl2OH-2H-CTZ]	nm	407

query: Need RLuc8.6-535 maximum luminescence wavelength (nm) of O=c1c(Cc2ccccc2)nc2c(Cc3ccccc3)[nH]c(-c3ccc(OCCCCCO)cc3)cn1-2 [6-Alkyl5OH-2H-CTZ] , thanks.
result: 406

query: Recorded RLuc8.6-535 maximum luminescence wavelength (nm) for COCc1ccc(-c2cn3c(=O)c(Cc4ccccc4)nc-3c(Cc3ccccc3)[nH]2)cc1 [6-Ether-2H-CTZ, reference compound] , please?
result: 406

query: For the compound COCCCOc1ccc(-c2cn3c(=O)c(Cc4ccccc4)nc-3c(Cc3ccccc3)[nH]2)cc1 [6-Alkyl3OMe-2H-CTZ] , what RLuc8.6-535 maximum luminescence wavelength (nm) is on record?
result: 413

query: // query RLuc8.6-535 maximum luminescence wavelength (nm) value for entry O=c1c(Cc2ccccc2)nc2c(Cc3ccccc3)[nH]c(-c3ccccc3)cn1-2 [DeepBlueC (trade name), reference compound]
result: 410
